Quantity: melting point

| Compound | melting point |
| --- | --- |
| CO/N=C(\C)c1ccc(N2C(=O)C(O)=C(C(=O)c3ccc(OC)cc3)C2c2ccc(F)cc2)cc1 (stereo not drawn) | 221 to 224 °C |
| COc1ccc(C(=O)C2=C(O)C(=O)N(c3ccc(C4=NCCO4)cc3)C2c2ccc(F)cc2)cc1 (stereo not drawn) | 189 to 192 °C |
| COc1ccc(C(=O)C2C(=O)C(=O)N(c3ccc(OC)cc3)C2c2ccc(F)cc2)cc1 (stereo not drawn) | 245 to 247 °C |
| CCC(CC)C1c2c(-c3ccc(OC)nc3)n[nH]c2C(=O)N1c1ccc(-c2ccon2)cc1 (stereo not drawn) | 226 to 228 °C |
| COc1ccc(C(=O)C2=C(O)C(=O)N(c3cccc(-c4ccon4)c3)C2c2ccc(F)cc2)cc1 (stereo not drawn) | 193 to 196 °C |

Exam item: Return the recorded melting point value; entry: COc1ccc(C(=NO)C2=C(OCc3ccccc3)C(=O)N(c3ccc(C(F)(F)F)cc3)C2c2ccccc2)cc1 (stereo not drawn)
Marked response: 197 to 204 °C

Exam item: Return the recorded melting point value; entry: COc1ccc(C(=O)C2=C(O)C(=O)N(c3ccc(C4=NCCS4)cc3)C2C2CCCCC2)cc1 (stereo not drawn)
Marked response: 247 to 250 °C

Exam item: Return the recorded melting point value; entry: CC(C)(C)c1n[nH]c2c1C(C1CCCCC1)N(c1ccc(-c3ccon3)cc1)C2=O (stereo not drawn)
Marked response: 251 to 252 °C

Exam item: Return the recorded melting point value; entry: COc1ccc(C(=O)C2=C(OCc3ccccc3)C(=O)N(c3ccc(C(F)(F)F)cc3)C2c2ccccc2)cc1 (stereo not drawn)
Marked response: 173 to 174 °C

Exam item: Return the recorded melting point value; entry: CCC(CC)C1c2c(-c3ccc(=O)[nH]c3)n[nH]c2C(=O)N1c1ccc(-c2ccon2)cc1 (stereo not drawn)
Marked response: > 290 °C

Exam item: Return the recorded melting point value; entry: CCOC(=O)c1ccc(N2C(=O)C(O)=C(Cc3ccccc3)C2c2ccc(OC)cc2)cc1 (stereo not drawn)
Marked response: 160 to 161 °C

Exam item: Return the recorded melting point value; entry: COc1ccc(C(=O)C2C(=O)C(=O)N(c3ccc(-c4cnco4)cc3)C2c2ccc(F)cc2)cc1 (stereo not drawn)
Marked response: 245 to 246 °C

Exam item: Return the recorded melting point value; entry: COc1ccc(-c2n[nH]c3c2C(c2ccc(F)cc2)N(c2ccc(C(F)(F)F)cc2)C3=O)cc1 (stereo not drawn)
Marked response: 217 to 218 °C

Exam item: Return the recorded melting point value; entry: COc1ccc(C(=O)C2=C(O)C(=O)N(c3ccc(-c4ccon4)cc3)C2c2cccc(OC)c2)cc1 (stereo not drawn)
Marked response: 238 to 240 °C

Exam item: Return the recorded melting point value; entry: COc1ccc(C(=O)C2=C(O)C(=O)N(c3ccc(-c4ccon4)cc3)C2C2CCOCC2)cc1 (stereo not drawn)
Marked response: 268 to 272 °C

---

Molecular target: human P2X3 receptor (Homo sapiens)
Construct: expressed in transfected cells
Sequence (P56373 whole entry): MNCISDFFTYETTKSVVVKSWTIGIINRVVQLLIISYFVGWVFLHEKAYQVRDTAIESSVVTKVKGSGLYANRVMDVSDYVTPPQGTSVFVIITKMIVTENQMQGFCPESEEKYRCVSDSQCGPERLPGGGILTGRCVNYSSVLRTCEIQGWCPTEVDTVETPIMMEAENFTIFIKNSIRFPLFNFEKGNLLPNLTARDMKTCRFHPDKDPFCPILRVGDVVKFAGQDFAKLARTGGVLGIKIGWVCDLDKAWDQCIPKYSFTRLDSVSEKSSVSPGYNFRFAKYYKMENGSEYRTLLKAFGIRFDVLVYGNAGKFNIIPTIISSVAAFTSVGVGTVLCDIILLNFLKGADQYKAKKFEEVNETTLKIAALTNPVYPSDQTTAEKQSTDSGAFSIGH
Assay: Inhibition of ATP-induced calcium fluorescence (Fluo-3, FDSS 3000) in C6BU-1 cells stably expressing human P2X3 receptor
Format: cell-based
Conditions: C6BU-1 cell transfected with human P2X3 receptor gene; 40 nM ATP solution; Fluo-3 fluorescence intensity
pIC50: −log10 of the molar value.
Quantity: pIC50

Reference set, count: 2
| Compound | pIC50 |
| --- | --- |
| COc1cccc(C2c3c(C)n[nH]c3C(=O)N2c2ccc(Br)cc2)c1 (stereo not shown) [Example I-122] | 4.71 |
| CCOC(=O)c1ccc(N2C(=O)C(O)=C(C(=O)c3ccco3)C2c2ccccc2)cc1 (stereo not shown) [Example I-77] | 5.10 |

a: COc1ccccc1C1C(C(=O)C2CC2)=C(O)C(=O)N1c1ccc(-c2ccon2)cc1 (stereo not shown) [II-45]
b: COc1ccccc1C1C(C(=O)CCOCc2ccccc2)=C(O)C(=O)N1c1ccc(-c2ccon2)cc1 (stereo not shown) [II-85]
Exam item: Would you let me know which has the greater pIC50 value, a or b ? Answer = label.
Marked response: a
(a: 5.97, b: 5.60)

Each recorded value in this set is attributed to patent US8497263B2.
